The measured values listed here are drawn from patent US20230114241A1.

- study target: human sphingosine-1-phosphate receptor 1 (S1P1) (Homo sapiens)
- Sequence (P21453 whole entry): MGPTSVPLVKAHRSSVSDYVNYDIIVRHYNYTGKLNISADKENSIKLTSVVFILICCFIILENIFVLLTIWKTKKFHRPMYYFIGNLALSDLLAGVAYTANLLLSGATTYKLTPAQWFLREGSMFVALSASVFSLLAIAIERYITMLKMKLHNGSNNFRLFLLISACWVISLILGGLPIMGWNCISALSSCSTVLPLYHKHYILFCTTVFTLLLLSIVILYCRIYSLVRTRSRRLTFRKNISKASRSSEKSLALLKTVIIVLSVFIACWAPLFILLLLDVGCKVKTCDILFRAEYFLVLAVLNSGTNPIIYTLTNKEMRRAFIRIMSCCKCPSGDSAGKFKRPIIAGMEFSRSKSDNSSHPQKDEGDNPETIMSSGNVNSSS
- experiment notes: Inhibition of cAMP production (HTRF cAMP HiRange), S1P1 CHO-K1 cells
- Format: cell-based
- experimental conditions: CHO-K1; inhibition of cAMP production; efficacy normalized to maximum efficacy of fingolimod; read-out: hS1P1 CAMP SPAN

# compound, Emax
data = [
    ("CCCC1(CCC)CC(=O)c2cc(-c3nc(-c4cccnc4)no3)ccc2O1", "> 75%"),
    ("CC(C)n1nnc2cc(-c3noc(-c4ccccc4C(F)(F)F)n3)ccc21", "> 75%"),
    ("Cc1ccncc1-c1noc(-c2ccc3nnn(CC(C)C)c3c2)n1", "> 75%"),
    ("Cc1ccsc1-c1noc(-c2ccc3c(c2)nnn3C(C)C)n1", "> 75%"),
    ("CC(C)n1nnc2cc(-c3nc(-c4cccc5c4OCCC5)no3)ccc21", "< 75%"),
    ("Cc1cnc(-c2noc(-c3ccc4c(c3)nnn4C(C)C)n2)cn1", "< 75%"),
    ("C=CCn1nnc2cc(-c3noc(-c4ccccc4Br)n3)ccc21", "> 75%"),
    ("CSc1ccccc1-c1nc(-c2ccc3c(c2)nnn3C(C)C)no1", "> 75%"),
    ("CCC1(CC)CC(=O)c2cc(-c3nc(-c4ccc5[nH]ncc5c4)no3)ccc2O1", "> 75%"),
    ("Cc1ccccc1-c1noc(-c2ccc3c(c2)CCC(=O)N3)n1", "> 75%"),
    ("Cc1ccccc1C(C)c1noc(-c2ccc3c(c2)nnn3CC(C)C)n1 (stereo not shown)", "< 75%"),
    ("COc1ccc(-c2nsc(-c3ccc4[nH]ccc4c3)n2)cc1", "< 75%"),
    ("Cc1cnc(-c2nc(-c3ccc4c(c3)nnn4C(C)C)no2)cn1", "< 75%"),
    ("COc1cccc(-c2nc(-c3ccc4[nH]ccc4c3)ns2)c1", "> 75%"),
    ("Cc1ccccc1-c1noc(-c2ccc3c(c2)nnn3C2CCC2)n1", "> 75%"),
    ("COc1ccccc1-c1noc(-c2ccc3[nH]ccc3c2)n1", "< 75%"),
    ("COc1ccccc1-c1cnc(-c2ccc3c(c2)nnn3C(C)C)s1", "> 75%"),
    ("CCC1(CC)CC(=O)c2cc(-c3nc(-c4cccnc4O)no3)ccc2O1", "< 75%"),
    ("C=CCNc1ccc(-c2nc(-c3cn[nH]c3)no2)cc1C#N", "> 75%"),
    ("CC(C)c1cc(-c2nc(-c3ccc4c(c3)nnn4C(C)C)no2)ccn1", "< 75%"),
    ("COc1cccc(-c2noc(-c3ccc4c(c3)nnn4C(C)C)n2)n1", "< 75%"),
    ("COc1ccccc1-c1nnc(-c2ccc3c(c2)nnn3C(C)C)o1", "> 75%"),
    ("Cc1cccc(-c2nc(-c3ccc4c(c3)nnn4C3CCCC3)no2)c1", "< 75%"),
    ("O=C1CC2(CCOCC2)Oc2ccc(-c3nc(-c4ccncc4)no3)cc21", "< 75%"),
    ("CC(C)n1nnc2cc(-c3nc(-c4ccccc4Cl)no3)ccc21", "> 75%"),
    ("CCC1(CC)CC(=O)c2cc(-c3nc(-c4ccccc4Cl)no3)ccc2O1", "> 75%"),
    ("COC(=O)CCn1nnc2cc(-c3noc(-c4ccccc4Br)n3)ccc21", "< 75%"),
    ("CCC1(CC)CC(=O)c2cc(-c3nc(-c4cccc(Cl)c4)no3)ccc2O1", "> 75%"),
    ("CC(C)n1nnc2cc(-c3nc4c(o3)Cc3ccccc3-4)ccc21", "< 75%"),
    ("CCC1(CC)CC(=O)c2cc(-c3nc(-c4cncc(OC)c4)no3)ccc2O1", "> 75%"),
    ("CCC1(CC)CC(=O)c2cc(-c3nc(-c4ccc(C(=O)N(C)C)cc4)no3)ccc2O1", "> 75%"),
    ("COc1cccc(F)c1-c1noc(-c2ccc3c(ccn3C(C)C)c2)n1", "> 75%"),
    ("Brc1ccccc1-c1nc(-c2ccc3c(c2)nnn3Cc2ccccn2)no1", "< 75%"),
    ("COc1ccccc1-c1nc(-c2ccc3c(c2)nnn3C(C)C)no1", "> 75%"),
]
